As shown below, each of these compounds has a reported Ki value.
Molecular target: Adrenergic receptor alpha-1 (Rattus norvegicus, UniProt P15823+P23944+P43140)
Assay: Binding affinity towards alpha-1 adrenergic receptor using [3H]prazosin radioligand.
Assay type: protein assay

>>> measured("O=C1C2CCCN2C(=O)N1CCCN1CCN(c2ccc(F)cc2)CC1 (stereo not given)")
"25.2 nM"

For O=C1C2CCCCN2C(=O)N1CCCN1CCN(c2cccc(Cl)c2)CC1 (stereo not given) , write its Ki.
17.9 nM

For O=C1C2CCCN2C(=O)N1CN1CCN(c2ccc(F)cc2)CC1 (stereo not given) , write its Ki.
> 1000 nM

For O=C1C2CCCCN2C(=O)N1CCCCN1CCN(c2cccc(C(F)(F)F)c2)CC1 (stereo not given) , write its Ki.
72.4 nM

For O=C1C2CCCCN2C(=O)N1CCCCN1CCN(c2ccc([N+](=O)[O-])cc2)CC1 (stereo not given) , write its Ki.
> 1000 nM

* * *

Biological target: 5-hydroxytryptamine receptor 1A (Rattus norvegicus)
Sequence (P19327 whole entry): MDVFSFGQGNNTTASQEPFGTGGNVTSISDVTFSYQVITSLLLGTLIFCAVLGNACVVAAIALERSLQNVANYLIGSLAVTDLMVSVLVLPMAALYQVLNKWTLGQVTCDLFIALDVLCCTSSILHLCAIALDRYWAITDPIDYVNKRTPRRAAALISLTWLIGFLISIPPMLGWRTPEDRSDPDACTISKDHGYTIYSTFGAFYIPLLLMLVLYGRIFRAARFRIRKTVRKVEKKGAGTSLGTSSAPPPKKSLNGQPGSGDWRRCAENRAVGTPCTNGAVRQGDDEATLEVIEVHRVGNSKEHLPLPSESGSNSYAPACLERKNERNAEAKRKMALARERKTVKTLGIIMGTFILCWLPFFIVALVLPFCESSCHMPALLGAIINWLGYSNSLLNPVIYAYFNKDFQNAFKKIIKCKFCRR
Quantity measured: pKi
Lab note: report pKi as minus log10 of the concentration in molar units, number only.

Look over these answered cases.
>>> measured("COc1ccccc1N1CCN(CCN2C(=O)C3CCCN3C2=O)CC1 (stereo not given)")
6.63
>>> measured("O=C1C2CCCCN2C(=O)N1CCN1CCN(c2cccc(Cl)c2)CC1 (stereo not given)")
6.89

For COc1ccccc1N1CCN(CCCCN2C(=O)C3CCCN3C2=O)CC1 (stereo not given) , write its pKi.
8.26

For O=C1C2CCCN2C(=O)N1CCCCN1CCN(c2cccc(C(F)(F)F)c2)CC1 (stereo not given) , write its pKi.
8.62

* * *

Measured Ki (5-hydroxytryptamine receptor 1A (Rattus norvegicus, UniProt P19327))
Write the answer as a number in nM, unit excluded.

>>> measured("O=C1C2CCCCN2C(=O)N1CCCN1CCN(c2cccc(C(F)(F)F)c2)CC1 (stereo not given)")
5.7
>>> measured("O=C1C2CCCCN2C(=O)N1CCCCN1CCN(c2cccc(C(F)(F)F)c2)CC1 (stereo not given)")
9.9
>>> measured("O=C1C2CCCN2C(=O)N1CCCCN1CCN(c2ccc(F)cc2)CC1 (stereo not given)")
89.9
>>> measured("O=C1C2CCCN2C(=O)N1CN1CCN(c2ccccc2)CC1 (stereo not given)")
85.3
>>> measured("COc1ccccc1N1CCN(CN2C(=O)C3CCCCN3C2=O)CC1 (stereo not given)")
31.7

Okay, now this compound:
For O=C1C2CCCN2C(=O)N1CCCCN1CCN(c2cccc(Cl)c2)CC1 (stereo not given) , write its Ki.
11.3

* * *

Molecular target: 5-hydroxytryptamine receptor 1A (Rattus norvegicus)
Quantity measured: Ki (nM)
Write the answer as a number in nM, unit excluded.

>>> measured("O=C1C2CCCN2C(=O)N1CCCCN1CCN(c2ccccc2)CC1 (configuration not stated)")
24.8
>>> measured("O=C1C2CCCN2C(=O)N1CCN1CCN(c2cccc(C(F)(F)F)c2)CC1 (configuration not stated)")
123
>>> measured("COc1ccccc1N1CCN(CCCN2C(=O)C3CCCN3C2=O)CC1 (configuration not stated)")
4.4
>>> measured("O=C1C2CCCCN2C(=O)N1CCCN1CCN(c2cccc(Cl)c2)CC1 (configuration not stated)")
53.6
>>> measured("O=C1C2CCCCN2C(=O)N1CCCCN1CCN(c2cccc(Cl)c2)CC1 (configuration not stated)")
7.2

For O=C1C2CCCCN2C(=O)N1CN1CCN(c2ccccc2)CC1 (configuration not stated) , write its Ki.
101

For O=C1C2CCCCN2C(=O)N1CN1CCN(c2ccc(F)cc2)CC1 (configuration not stated) , write its Ki.
444

* * *

As shown below, each of these compounds has a reported Ki value.
Molecular target: D(2) dopamine receptor (Rattus norvegicus, UniProt P61169)
Sequence (P61169 whole entry): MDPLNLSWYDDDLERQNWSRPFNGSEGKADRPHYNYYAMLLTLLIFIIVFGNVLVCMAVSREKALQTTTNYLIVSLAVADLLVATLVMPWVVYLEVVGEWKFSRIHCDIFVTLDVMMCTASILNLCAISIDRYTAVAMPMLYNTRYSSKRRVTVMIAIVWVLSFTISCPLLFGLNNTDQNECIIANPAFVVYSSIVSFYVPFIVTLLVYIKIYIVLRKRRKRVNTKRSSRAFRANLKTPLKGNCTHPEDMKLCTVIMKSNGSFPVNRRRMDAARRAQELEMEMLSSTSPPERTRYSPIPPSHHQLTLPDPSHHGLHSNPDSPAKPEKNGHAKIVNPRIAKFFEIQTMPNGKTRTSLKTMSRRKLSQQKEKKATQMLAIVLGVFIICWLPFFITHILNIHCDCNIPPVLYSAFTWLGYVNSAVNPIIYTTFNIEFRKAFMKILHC
Assay: Binding affinity towards dopamine receptor D2 using [3H]-raclopride radioligand.

>>> measured("O=C1C2CCCCN2C(=O)N1CCN1CCN(c2ccccc2)CC1 (stereo unspecified)")
"> 1 µM"

For O=C1C2CCCCN2C(=O)N1CCCN1CCN(c2cccc(C(F)(F)F)c2)CC1 (stereo unspecified) , write its Ki.
> 1 µM

For O=C1C2CCCN2C(=O)N1CCN1CCN(c2ccc(F)cc2)CC1 (stereo unspecified) , write its Ki.
> 10 µM

For COc1ccccc1N1CCN(CCCCN2C(=O)C3CCCN3C2=O)CC1 (stereo unspecified) , write its Ki.
0.107 µM

For O=C1C2CCCN2C(=O)N1CN1CCN(c2cccc(C(F)(F)F)c2)CC1 (stereo unspecified) , write its Ki.
> 1 µM

* * *

Molecular target: Adrenergic receptor alpha-1 (Rattus norvegicus, UniProt P15823+P23944+P43140)
Sequence (P15823 whole entry): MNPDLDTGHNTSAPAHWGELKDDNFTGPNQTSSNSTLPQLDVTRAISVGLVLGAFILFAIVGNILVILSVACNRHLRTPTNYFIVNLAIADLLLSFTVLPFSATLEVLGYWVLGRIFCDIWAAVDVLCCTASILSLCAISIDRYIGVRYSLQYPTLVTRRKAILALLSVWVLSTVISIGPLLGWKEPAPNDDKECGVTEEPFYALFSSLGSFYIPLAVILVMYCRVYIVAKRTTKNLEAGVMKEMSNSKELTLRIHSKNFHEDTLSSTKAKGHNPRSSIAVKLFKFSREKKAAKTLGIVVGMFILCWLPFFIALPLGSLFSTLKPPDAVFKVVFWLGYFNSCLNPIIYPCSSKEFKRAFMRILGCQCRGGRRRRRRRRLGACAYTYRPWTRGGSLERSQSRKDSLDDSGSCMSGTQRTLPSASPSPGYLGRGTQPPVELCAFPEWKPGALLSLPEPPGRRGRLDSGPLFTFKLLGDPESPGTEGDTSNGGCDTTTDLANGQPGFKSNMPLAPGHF
Sequence (P23944 whole entry): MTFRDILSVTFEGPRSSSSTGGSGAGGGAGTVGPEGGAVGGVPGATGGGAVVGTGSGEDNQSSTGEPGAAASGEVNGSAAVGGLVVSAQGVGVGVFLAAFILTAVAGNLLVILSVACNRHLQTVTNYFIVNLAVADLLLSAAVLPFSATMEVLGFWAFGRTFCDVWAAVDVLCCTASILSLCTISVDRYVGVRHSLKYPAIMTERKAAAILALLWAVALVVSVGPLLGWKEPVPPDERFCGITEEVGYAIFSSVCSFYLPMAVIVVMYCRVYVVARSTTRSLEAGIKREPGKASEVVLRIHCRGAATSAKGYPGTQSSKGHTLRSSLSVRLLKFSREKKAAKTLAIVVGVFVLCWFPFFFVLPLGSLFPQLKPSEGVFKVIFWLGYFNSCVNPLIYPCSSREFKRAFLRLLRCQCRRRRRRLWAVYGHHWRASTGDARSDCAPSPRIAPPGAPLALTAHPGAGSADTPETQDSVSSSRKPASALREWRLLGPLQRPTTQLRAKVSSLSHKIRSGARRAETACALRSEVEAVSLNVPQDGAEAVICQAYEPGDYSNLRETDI
Sequence (P43140 whole entry): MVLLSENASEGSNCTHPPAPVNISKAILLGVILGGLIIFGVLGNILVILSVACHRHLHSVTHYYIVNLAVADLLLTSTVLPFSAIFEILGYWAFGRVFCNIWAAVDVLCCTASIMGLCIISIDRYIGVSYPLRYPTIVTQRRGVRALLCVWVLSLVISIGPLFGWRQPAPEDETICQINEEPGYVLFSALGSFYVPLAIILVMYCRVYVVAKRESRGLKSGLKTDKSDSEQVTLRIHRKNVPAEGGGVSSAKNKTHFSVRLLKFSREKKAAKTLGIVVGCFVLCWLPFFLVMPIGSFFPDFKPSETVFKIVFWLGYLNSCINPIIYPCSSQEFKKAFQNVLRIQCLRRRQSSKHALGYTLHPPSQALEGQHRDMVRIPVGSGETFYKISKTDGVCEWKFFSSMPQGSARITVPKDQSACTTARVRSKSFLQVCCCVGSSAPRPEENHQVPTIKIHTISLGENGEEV
Test: Binding affinity towards alpha-1 adrenergic receptor using [3H]prazosin radioligand.
Assay type: protein assay
Quantity measured: Ki (nM)
Write the answer as a number in nM, unit excluded.

Look over these answered cases.
>>> measured("COc1ccccc1N1CCN(CCN2C(=O)C3CCCCN3C2=O)CC1 (stereo unspecified)")
131
>>> measured("O=C1C2CCCCN2C(=O)N1CCCCN1CCN(c2cccc(Cl)c2)CC1 (stereo unspecified)")
12.1
>>> measured("O=C1C2CCCN2C(=O)N1CCCN1CCN(c2cccc(Cl)c2)CC1 (stereo unspecified)")
21.6
>>> measured("O=C1C2CCCN2C(=O)N1CCCCN1CCN(c2cccc(Cl)c2)CC1 (stereo unspecified)")
9.6
>>> measured("O=C1C2CCCCN2C(=O)N1CCCN1CCN(c2ccc(F)cc2)CC1 (stereo unspecified)")
25.8

For O=C1C2CCCCN2C(=O)N1CCCCN1CCN(c2ccc(F)cc2)CC1 (stereo unspecified) , write its Ki.
10.4
